- subject of test: Toll-like receptor 7 (Homo sapiens)
- assay procedure: Agonist activity at TLR7 in human PBMC assessed as suppression of HCV replicon replication in human HuH7 luc/neo cells harboring RNA encoding bicistronic expression construct comprising wild type HCV type 1b NS3-NS5B regions exposed to conditioned media from compound treated PBMCs by luciferase reporter gene assay
- Assay type: cell-based
measurement label: MEC (µM)
Response body: numeric value in µM, unit text excluded.

Recorded MEC, per entry:
> print(dat)
                         smiles.entry                      subject.of.test  reported.measurement
1             COCCCNc1nc(N)nc2ccccc12  Toll-like receptor 7 (Homo sapiens)                  0.04
2          CCCCNc1nc(N)nc2cccc(OC)c12  Toll-like receptor 7 (Homo sapiens)                   0.1
3  CCCCNc1nc(N)nc2cccc(OCc3ccccc3)c12  Toll-like receptor 7 (Homo sapiens)                  0.04
4          CCCCNc1nc(N)nc2cc(OC)ccc12  Toll-like receptor 7 (Homo sapiens)                  0.15

IN: Determine its reported MEC: CCCCNc1nc(N)nc2ccc(OC)cc12
OUT: 2.44

---

MEC: recorded values
- subject of test: Toll-like receptor 8 (Homo sapiens)
- assay procedure: Agonist activity at human TLR8 expressed in HEK293 cells assessed as induction of receptor activation incubated for 6 hrs by NF-kappaB-luciferase reporter gene assay
- Type: cell-based
- experimental context: hek293, 6 h
Write the answer as a number in µM, unit excluded.

Example entries and their recorded answers appear below.
> print(dat)
                         smiles.entry  measurement.label  unit.abbreviation  reported.measurement
1  CCCCNc1nc(N)nc2cc(C(=O)N(C)C)ccc12                MEC                 µM                   0.5
2  CCCCNc1nc(N)nc2cccc(OCc3ccccc3)c12                MEC                 µM                  1.66
3          CCCCNc1nc(N)nc2cccc(OC)c12                MEC                 µM                   0.1
4             COCCCNc1nc(N)nc2ccccc12                MEC                 µM                  0.01
5          CCCCNc1nc(N)nc2cc(CO)ccc12                MEC                 µM                   0.1

IN: Identify MEC associated with the compound CCCNc1nc(N)nc2ccccc12
OUT: 0.93

IN: # return recorded MEC for input CCNc1nc(N)nc2ccccc12
OUT: 0.77

IN: Quick one: give measured MEC for CCCCNc1nc(N)nc2ccc(C#N)cc12
OUT: 7.1

IN: State its MEC for this compound: CCCCNc1nc(N)nc2ccc(CCc3ccc(N(C)C)cc3)cc12
OUT: 0.5

IN: Give me measured MEC, please, for this compound: CCCCNc1nc(N)nc2cccc(CCc3ccccc3)c12
OUT: 0.47

IN: Given CCCCNc1nc(N)nc2cccc(C(=O)NC(C)C)c12 , respond with its MEC.
OUT: 15.55

---

- subject of test: Toll-like receptor 8 (Homo sapiens, UniProt Q9NR97)
- Sequence (Q9NR97 whole entry): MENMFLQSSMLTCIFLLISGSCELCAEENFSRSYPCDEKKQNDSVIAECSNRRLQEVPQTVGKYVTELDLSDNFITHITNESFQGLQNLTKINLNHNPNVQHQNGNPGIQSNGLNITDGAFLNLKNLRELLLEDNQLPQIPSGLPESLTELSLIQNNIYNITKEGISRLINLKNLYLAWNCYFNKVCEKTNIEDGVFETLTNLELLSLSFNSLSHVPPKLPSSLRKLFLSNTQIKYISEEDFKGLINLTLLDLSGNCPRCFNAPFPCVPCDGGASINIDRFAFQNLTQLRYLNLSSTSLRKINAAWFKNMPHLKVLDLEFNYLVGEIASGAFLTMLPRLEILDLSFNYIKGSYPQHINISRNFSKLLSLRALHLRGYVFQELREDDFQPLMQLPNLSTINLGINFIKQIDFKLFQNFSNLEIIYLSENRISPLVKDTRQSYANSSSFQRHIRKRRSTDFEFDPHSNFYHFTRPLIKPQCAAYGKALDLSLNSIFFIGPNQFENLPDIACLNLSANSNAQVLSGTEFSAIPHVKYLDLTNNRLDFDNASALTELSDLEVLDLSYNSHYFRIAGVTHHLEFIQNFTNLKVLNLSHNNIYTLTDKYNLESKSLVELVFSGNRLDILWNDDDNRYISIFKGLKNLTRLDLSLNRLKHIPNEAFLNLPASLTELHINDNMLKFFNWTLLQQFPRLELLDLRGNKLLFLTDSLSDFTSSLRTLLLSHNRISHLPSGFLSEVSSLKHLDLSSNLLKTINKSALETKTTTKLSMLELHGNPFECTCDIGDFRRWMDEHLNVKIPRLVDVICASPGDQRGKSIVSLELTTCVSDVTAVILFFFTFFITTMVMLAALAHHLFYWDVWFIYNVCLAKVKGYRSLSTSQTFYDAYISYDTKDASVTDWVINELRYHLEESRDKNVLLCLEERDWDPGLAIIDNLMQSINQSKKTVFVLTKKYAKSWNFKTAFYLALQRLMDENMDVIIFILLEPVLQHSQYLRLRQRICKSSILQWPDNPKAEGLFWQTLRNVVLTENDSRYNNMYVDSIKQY
- assay procedure: Agonist activity at human TLR8 expressed in HEK293 cells assessed as induction of receptor activation incubated for 6 hrs by NF-kappaB-luciferase reporter gene assay
- Format: cell-based
- experimental context: hek293, 6 h
Rule: MEC below 2 µM gives 1. Equal to or above 2 µM gives 0.

Before answering, review these 2 worked examples.
> print(dat)
                       smiles.entry                           subject.of.test  category
1        CCCCNc1nc(N)nc2ccc(CO)cc12  Toll-like receptor 8 (Homo sapiens, UniProt Q9NR97)         1
2  CCCCNc1nc(N)nc2cccc(CC3CCCC3)c12  Toll-like receptor 8 (Homo sapiens, UniProt Q9NR97)         0

IN: # strict comparison: is reported MEC < 2 µM? input = CCCCNc1nc(N)nc2ccc(C(C)=O)cc12
OUT: 1

IN: Does this compound meet the criterion MEC < 2 µM? CCCCNc1nc(N)nc2cc(OC)c(OC)cc12
OUT: 1

IN: Criterion: MEC strictly below 2 µM. Is it met by CCCCNc1nc(N)nc2ccccc12 ?
OUT: 1

IN: Strictly below 2 µM in MEC? CNc1nc(N)nc2ccccc12
OUT: 0

IN: hey, is MEC for CCCCNc1nc(N)nc2cccc(OCc3ccccc3OC)c12 lower than 2 µM or not?
OUT: 0

---

- subject of test: Toll-like receptor 7 (Homo sapiens)
- assay procedure: Agonist activity at TLR7 in human PBMC assessed as suppression of HCV replicon replication in human HuH7 luc/neo cells harboring RNA encoding bicistronic expression construct comprising wild type HCV type 1b NS3-NS5B regions exposed to conditioned media from compound treated PBMCs by luciferase reporter gene assay
- Format: cell-based
measurement label: MEC (µM)
Answer format: numeric, µM implied, no suffix.

See these solved cases before continuing.
> print(dat)
                                   compound  measurement.label  unit.abbreviation  reported.measurement
1            CCCCNc1nc(N)nc2ccc(C(C)=O)cc12                MEC                 µM                  2.39
2  CCCCNc1nc(N)nc2ccc(C(C)O)cc12 (configuration not stated)                MEC                 µM                  8.49
3                 CCCCNc1nc(N)nc2c(F)cccc12                MEC                 µM                  0.07

IN: Query MEC for CCCCNc1nc(N)nc2cccc(C(=O)N[C@@H](C)c3ccccc3)c12
OUT: 0.14

IN: Indicate its recorded MEC; the compound in question is CCCCNc1nc(N)nc2cc(F)c(F)cc12
OUT: 0.26

IN: Hello, please tell me recorded MEC for this one: CCCCNc1nc(N)nc2cc(CO)ccc12
OUT: 0.05

IN: Report MEC, nothing else, for this compound: CCNc1nc(N)nc2ccccc12
OUT: 2.27

IN: Give reported MEC value for CCCCNc1nc(N)nc2cccc(OCc3ccccc3OC)c12
OUT: 0.33

IN: Could you please provide reported MEC for CCCCNc1nc(N)nc2cccc(Cl)c12 ? Thanks!
OUT: 0.17

---

- assay procedure: Metabolic stability in human liver microsomes assessed as drug metabolism after 15 mins at 1 uM
- Type: ADME, microsome
- experimental context: read-out: Drug metabolism
Recorded metabolised at 0.25 h, 1 µM by entry
Give just the number in %; leave the unit off.

> print(dat)
                               smiles.entry  reported.measurement
1        CCCCNc1nc(N)nc2cccc(OCc3ccccn3)c12                    60
2             CCCCNc1nc(N)nc2cccc(OCCOC)c12                    59
3           CCCCNc1nc(N)nc2cccc(C(=O)NC)c12                    23
4        CCCCNc1nc(N)nc2cccc(OCc3ccccc3)c12                    11
5  CCCCNc1nc(N)nc2cccc(C(=O)N(C)Cc3ccccc3)c12                    98
6  CCCCNc1nc(N)nc2cccc(OCc3ccc(CO)cc3OC)c12                    43
7        CCCCNc1nc(N)nc2cccc(OCc3cccnc3)c12                    44
8                CCCCNc1nc(N)nc2cccc(Cl)c12                    99

IN: Determine its reported metabolised at 0.25 h, 1 µM: CCCCNc1nc(N)nc2cccc(OCc3nccc(OC)c3OC)c12
OUT: 37

IN: Let me know recorded metabolised at 0.25 h, 1 µM for CCCCNc1nc(N)nc2cccc(OCc3ccccc3OC)c12 , thanks.
OUT: 48

IN: Output metabolised at 0.25 h, 1 µM of CCCCNc1nc(N)nc2cccc(C(=O)N[C@@H](C)c3ccccc3)c12
OUT: 31

IN: Provide one value: measured metabolised at 0.25 h, 1 µM of CCCCNc1nc(N)nc2cccc(C(=O)NC(C)C)c12
OUT: 14

---

- assay procedure: Metabolic stability in mouse liver microsomes assessed as drug metabolism after 15 mins at 1 uM
- Type: ADME, microsome
- experimental context: read-out: Drug metabolism
measurement label: metabolised at 0.25 h, 1 µM (%)
Field format: number, assumed %, no unit text.

> print(dat)
                                smiles.entry            measurement.label  reported.measurement
 1  CCCCNc1nc(N)nc2cccc(C(=O)N[C@H](C)c3ccccc3)c12  metabolised at 0.25 h, 1 µM                    75
 2  CCCCNc1nc(N)nc2cccc(C(=O)N[C@@H](C)c3ccccc3)c12  metabolised at 0.25 h, 1 µM                    68
 3             CCCCNc1nc(N)nc2cccc(OCCOC)c12  metabolised at 0.25 h, 1 µM                    98
 4                CCCCNc1nc(N)nc2cccc(Cl)c12  metabolised at 0.25 h, 1 µM                    88
 5                CCCCNc1nc(N)nc2cccc(OC)c12  metabolised at 0.25 h, 1 µM                   100
 6       CCCCNc1nc(N)nc2cccc(C(=O)NC(C)C)c12  metabolised at 0.25 h, 1 µM                    45
 7  CCCCNc1nc(N)nc2cccc(C(=O)N[C@@H](C)c3ccccc3OC)c12  metabolised at 0.25 h, 1 µM                    99
 8  CCCCNc1nc(N)nc2cccc(C(=O)N[C@@H](C)c3cccc(OC)c3)c12  metabolised at 0.25 h, 1 µM                    96
 9      CCCCNc1nc(N)nc2cccc(OCc3ccccc3OC)c12  metabolised at 0.25 h, 1 µM                    98
10   CCCCNc1nc(N)nc2cccc(C(=O)NCc3ccccc3)c12  metabolised at 0.25 h, 1 µM                    92

IN: Respond only with metabolised at 0.25 h, 1 µM recorded for CCCCNc1nc(N)nc2cccc(C(=O)N(C)Cc3ccccc3)c12
OUT: 99
